Quick reference: Remaining (T = 60 min) of the listed items.
# protocolSummary: Liver Microsome stability (In Vitro Metabolism)
# Type: in vitro ADME
# testConditions: Rat liver microsomes
outcomeMeasure: Remaining (T = 60 min) (%)

compound | recordedMeasurement
COC(=O)C(Cc1c[nH]cn1)NC(=O)C1C(O)CC2(O)CC(O)CC(O)C(O)CCC(O)CC(O)CC(=O)OC(C)C(C)C(O)C(C)C=CC=CC=CC=CC=CC=CC=CC(OC3OC(C)C(O)C(N)C3O)CC1O2 (stereo not drawn) | 132
CC1C=CC=CC=CC=CC=CC=CC=CC(OC2OC(C)C(O)C(N)C2O)CC2OC(O)(CC(O)CC(O)C(O)CCC(O)CC(O)CC(=O)OC(C)C(C)C1O)CC(O)C2C(=O)NCCO (stereo not drawn) [Compound AA] | 130
C[C@@H]1[C@H](O)[C@@H](C)/C=C/C=C/C=C/C=C/C=C/C=C/C=C/[C@H](OC2O[C@H](C)[C@@H](O)[C@H](N)[C@@H]2O)C[C@@H]2O[C@](O)(C[C@@H](O)C[C@@H](O)[C@H](O)CC[C@@H](O)C[C@@H](O)CC(=O)O[C@H]1C)C[C@H](O)[C@H]2C(=O)O (stereo partly drawn) | 121
